# Tested on: M. mycetomatis genome strain MM55
# experimentDescription: CLSI M38-A2 based in vitro susceptibility screening (XTT or resazurin), growth at fixed concentration
# Format: cell-based, Madurella mycetomatis
# studyConditions: Madurella mycetomatis, 25 uM, replicate A; read-out: Percentage survival at 25um, 25 um A
Please provide measured activity at 25 µM for the entries that follow.
One number for each entry, in %.

Answered examples (3):
> print(dat)
                                   compound                      assayedsystem   quantitymeasured  uom  result
1  O=C(Nc1nnc(-c2ccc(Cl)cc2)o1)c1nc2ccccc2s1  M. mycetomatis genome strain MM55  activity at 25 µM    %     134
2  N[C@@H]1CN(c2c(F)cc3c(=O)c(C(=O)O)cn([C@@H]4C[C@@H]4F)c3c2Cl)CC12CC2  M. mycetomatis genome strain MM55  activity at 25 µM    %    82.4
3        Fc1ccc2c(/C=C/c3nnn[nH]3)c[nH]c2c1  M. mycetomatis genome strain MM55  activity at 25 µM    %    86.3

// for each compound below, give its activity at 25 µM
1. Cc1ccc(NC(=O)c2cc(Cl)ccc2O)cc1
2. OCCC#Cc1nc(-c2ccc(F)cc2)c(-c2ccncc2)n1CCCc1ccccc1
3. O=C(Nc1ccc(F)cc1)c1nn(-c2ccccc2)c(=O)cc1Cl

OUT:
1. 3.43
2. 62
3. 84.2

// for each compound below, give its activity at 25 µM
1. O=S(=O)(Nc1ccccc1)c1ccc(NC(=S)Nc2ccccc2)cc1
2. Nc1cnn(C2OC(CO)C(O)C2O)c(=O)n1 (centres unmarked)
3. CC(C)N(c1cc(-c2ccccc2)sc1C(=O)O)C(=O)[C@H]1CC[C@H](C)CC1
4. O=C1NC(=O)C(Br)=C1Br

OUT:
1: 93.2; 2: 82; 3: 89.7; 4: 80.1

// for each compound below, give its activity at 25 µM
1. Cc1cccc(C)c1C(=O)Nc1nc(-c2ccccn2)cc2ccccc12
2. O=C1CCC(N2C(=O)c3ccccc3C2=O)C(=O)N1 (centres unmarked)
3. CC(=N)N1CC[C@H](SC2=C(C(=O)O)N3C(=O)[C@@H]([C@@H](C)O)[C@H]3C2)C1
4. COc1cc(NC(=O)CN2C(=O)NC(c3ccccc3)(c3ccccc3)C2=O)cc(OC)c1
5. OB1OCc2c1ccc(Cl)c2F
6. NC[C@H]1O[C@H](O[C@H]2[C@H](O)[C@@H](O[C@H]3O[C@H](CO)[C@@H](O)[C@H](N)[C@H]3O)[C@H](N)C[C@@H]2N)[C@H](N)C[C@@H]1O
7. O=C(CP(=O)(O)O)NCCc1cccc(Oc2ccccc2)c1

OUT:
1. 65
2. 89.5
3. 77.3
4. 95.2
5. 54.6
6. 96.5
7. 84.6

* * *

Please provide measured activity at 100 µM for the entries that follow.
# System: M. mycetomatis genome strain MM55
# experimentDescription: CLSI M38-A2 based in vitro susceptibility screening (XTT or resazurin), growth at fixed concentration
# Assay type: cell-based, Madurella mycetomatis
# studyConditions: Madurella mycetomatis, 100 uM, first replicate column; read-out: Percentage survival at 100um, 100 uM A
Numbers only, in %.

// for each compound below, give its activity at 100 µM
1. O=C(c1nc2c(C(F)(F)F)cc(C3CC3)cn2c1Cl)N1CCN([C@H]2CC[C@H](O)CC2)C(=O)C1
2. CCc1c(OCC2CCC2)c2cc(F)ccc2[nH]c1=O

OUT:
[92.3, 62.9]

* * *

# System: M. mycetomatis genome strain MM55
# experimentDescription: CLSI M38-A2 based in vitro susceptibility screening (XTT or resazurin), growth at fixed concentration
# Format: cell-based, Madurella mycetomatis
# studyConditions: Madurella mycetomatis, 100 uM, mean; read-out: Percentage survival at 100um, 100 uM mean
quantityMeasured: activity at 100 µM (%)
Answers are plain numbers, in %.

compound	uom	activity at 100 µM
CN(C)c1[nH]c(=O)ncc1F [MMV1782223]	%	82.8
COC(=O)Nc1nc2ccc([S+]([O-])c3ccccc3)cc2[nH]1 (centres unmarked) [MMV002565, Oxfendazole, reference compound]	%	76.1
CN(C/C=C/C#CC(C)(C)C)Cc1cccc2ccccc12 [MMV1634359]	%	81.5

// for each compound below, give its activity at 100 µM
1. Cc1cc(C)n(O)c(=O)c1 [MMV1782389]
2. CCC(C)n1ncn(-c2ccc(N3CCN(c4ccc(OCC5COC(Cn6cncn6)(c6ccc(Cl)cc6Cl)O5)cc4)CC3)cc2)c1=O (centres unmarked) [MMV637528, Itraconazole, reference compound]

OUT:
81.6
2.34

* * *

Please provide measured activity at 25 µM for the entries that follow.
# Test system: M. mycetomatis genome strain MM55
# experimentDescription: CLSI M38-A2 based in vitro susceptibility screening (XTT or resazurin), growth at fixed concentration
# Assay type: cell-based, Madurella mycetomatis
# studyConditions: Madurella mycetomatis, 25 uM, replicate C, M. mycetomatis MM55; read-out: Percentage survival at 25um, 25 uM C

compound	assayedSystem	activity at 25 µM
CC(C)(C)OC(=O)NCc1ccc(C(=O)N[C@H]2CCOC2=O)cc1	M. mycetomatis genome strain MM55	77.3%
COc1ccc2cc3[n+](cc2c1OCCN(CCn1cncn1)Cc1ccc(F)cc1F)CCc1cc2c(cc1-3)OCO2	M. mycetomatis genome strain MM55	75.5%
CCc1nc(N)nc(N)c1C#CC(C)c1cc(OC)cc(-c2ccncc2)c1 (stereo not drawn)	M. mycetomatis genome strain MM55	2.83%
O=c1cc(OCc2ccccc2)ccn1Cc1ccccc1	M. mycetomatis genome strain MM55	87.1%
O=S(=O)(Nc1cccc2cccnc12)c1ccccc1	M. mycetomatis genome strain MM55	4.13%

// for each compound below, give its activity at 25 µM
1. OC1O[C@H](CSc2ccc(F)cc2)[C@@H](O)[C@H]1O (stereo partly drawn)
2. Cc1c(N)cccc1Cn1ccc(OCCc2cccs2)cc1=O
3. O=S(=O)(Nc1ccc(-n2cccc2)cc1)c1ccc(Cl)c(Cl)c1

OUT:
1: 85.4%; 2: 72.6%; 3: 3.22%

* * *

# Test system: M. mycetomatis genome strain MM55
# experimentDescription: CLSI M38-A2 based in vitro susceptibility screening (XTT or resazurin), growth at fixed concentration
# Assay type: cell-based, Madurella mycetomatis
# studyConditions: Madurella mycetomatis, 100 uM, third replicate column; read-out: Percentage survival at 100um, 100 uM A
quantityMeasured: activity at 100 µM (%)
Numbers only, in %.

// for each compound below, give its activity at 100 µM
1. CC(C)(C)NC(=O)N[C@H](C(=O)N1C[C@H]2[C@@H]([C@H]1C(=O)NC(CC1CCC1)C(=O)C(N)=O)C2(C)C)C(C)(C)C (stereo partly drawn)
2. Nc1nc(O)c2ncn(COC(CO)CO)c2n1
3. C[C@@]1(O)[C@H](O)[C@@H](CO)O[C@H]1n1ccc2c(N)ncnc21

OUT:
1. 94.6
2. 82.5
3. 86.2

* * *

Please provide measured activity at 100 µM for the entries that follow.
# Test system: M. mycetomatis genome strain MM55
# experimentDescription: CLSI M38-A2 based in vitro susceptibility screening (XTT or resazurin), growth at fixed concentration
# Format: cell-based, Madurella mycetomatis
# studyConditions: Madurella mycetomatis, 100 uM, replicate 3, M. mycetomatis MM55; read-out: Percentage survival at 100um, 100 uM A (third replicate column)
Numbers only, in %.

// for each molecule below, give its activity at 100 µM
1. Fc1ccc(-c2nc(-c3c[nH]c4ccc(Br)cc34)[nH]c2-c2ccc(F)cc2)cc1
2. NCCCc1ccccc1C(=O)Nc1ncc([N+](=O)O)s1
3. O=C(NCc1ccccc1Cl)c1cnc2ccccc2n1
4. O=S(=O)(Nc1ccc(-n2cccc2)cc1)c1ccc(Cl)c(Cl)c1
5. CCc1nc2ccccn2c1C(=O)NCc1ccccc1
6. Cc1cc(-c2ccccc2)c(C(=O)C(=O)Nc2ccc(N3CCN(c4ncc(F)cn4)CC3)cc2)n1C
7. CCc1nc(N)nc(N)c1C#CC(C)c1cc(OC)cc(-c2ccncc2)c1 (stereo not drawn)

OUT:
[5.52, 75.1, 88.1, 4.16, 86.6, 15.3, -1.98]

// for each molecule below, give its activity at 100 µM
1. O=c1cc(OCc2ccccc2)ccn1Cc1ccccc1
2. Nc1nnnn1CCOc1c2[nH]c3ccc(Cl)cc3c2cc2c1[nH]c1ccc(Cl)cc12

OUT:
1. 55.4
2. 5.11

* * *

# Tested on: M. mycetomatis genome strain MM55
# experimentDescription: CLSI M38-A2 based in vitro susceptibility screening (XTT or resazurin), growth at fixed concentration
# Assay type: cell-based, Madurella mycetomatis
# studyConditions: Madurella mycetomatis, 100 uM, replicate 3, M. mycetomatis MM55; read-out: Percentage survival at 100um, 100 uM A (third replicate column)
Label not met if activity at 100 µM falls below 60%; label met in every other case.

Look over these answered cases.
> print(dat)
                                   molecule  labelclass
1  CC(C)/N=c1\cc2n(-c3ccc(Cl)cc3)c3ccccc3nc-2cc1Nc1ccc(Cl)cc1         met
2  Nc1nc(Nc2ccc3nc(-c4ccc(F)cc4)cc(N)c3c2)cc(-c2ccccc2)n1     not met
3  NC(=O)c1cnc2ccc(S(=O)(=O)c3ccccc3)cc2c1Nc1ccc(O)cc1         met

IN: Is activity at 100 µM at least 60%? Consider `CCNC(=O)Nc1cc2c(-c3ccnc(C)c3)ccc(CNC(=O)OC)c2cn1`
OUT: met

IN: Now the same for `CCCCCCCc1[nH]c2ccccc2c(=O)c1O`
OUT: met

IN: Now the same for N#C/C(=C1/SC[C@@H](c2ccc(Cl)cc2Cl)S1)n1ccnc1 [MMV1782224, Luliconazole, reference compound]
OUT: not met

IN: Now the same for CC1CN(c2ncnc3c2c(-c2ccccc2)cn3-c2ccc(F)cc2)CC(C)O1 (centres unmarked)
OUT: met

IN: Now the same for `O=C(/C(=C/c1ccc(Cl)cc1Cl)n1ccnc1)c1ccc(Cl)cc1`
OUT: not met
